# target: T1, B7-H3 on B7-H3-expressing CHO cells (Genescript) (UniProt Q5ZPR3 29-534, limits assumed)
# T1 construct: whole, on cells; also called CHO-K1/B7-H3; MFI B7-H3
# T1 sequence (looked up): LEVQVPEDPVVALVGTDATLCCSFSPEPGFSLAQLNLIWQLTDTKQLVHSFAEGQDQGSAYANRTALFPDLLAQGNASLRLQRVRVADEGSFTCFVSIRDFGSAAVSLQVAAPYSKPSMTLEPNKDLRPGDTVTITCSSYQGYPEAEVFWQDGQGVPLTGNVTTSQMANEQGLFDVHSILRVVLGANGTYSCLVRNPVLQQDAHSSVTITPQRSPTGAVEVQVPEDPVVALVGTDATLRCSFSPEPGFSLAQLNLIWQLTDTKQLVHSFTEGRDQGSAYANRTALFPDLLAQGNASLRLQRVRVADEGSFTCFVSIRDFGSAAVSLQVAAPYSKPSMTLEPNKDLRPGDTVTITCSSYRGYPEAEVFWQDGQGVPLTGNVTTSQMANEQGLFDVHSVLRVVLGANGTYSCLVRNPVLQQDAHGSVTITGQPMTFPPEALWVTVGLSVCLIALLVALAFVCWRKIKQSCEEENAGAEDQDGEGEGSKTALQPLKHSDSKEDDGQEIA
# protocol-details: flow cytometry, B7-H3-expressing CHO cells, 10 ug/ml
attribute-measured: MFI @ 10 ug/ml (MFI)
Note: unit MFI is implicit; provide only the numeric part.

Please review the entries below; each comes with its answer.
{"binder": "40633p1.2.C3 (scFv, V domains shown, Tested as scFv-Fc (Expi293 supernatant)) VH: EVQLLESGGGLVQPGGSLRLSCAASGFTVSYYGMSWVRQAPGKGLEWVSAIKQDGSEKYYADSVKGRFTISRDNSKNTLYLQMNSLRAEDTAVYYCARHWNDYSNAMNVWEQGTTVTVSS VL: QSVLTQPPSASGTPGQRVTISCSGSNSNVGGNYVSWYQQLPGTAPKLLIYRNSQRPSGVPDRFSGSKSGTSASLAISGLQSEDEAVYYCASWDASLNGWVFGGGTKLTVL", "result": 53100}
{"binder": "40579p1.F7 (scFv, V domains shown, Tested as scFv-Fc (Expi293 supernatant)) VH: EVQLLESGGGLVQPGGSLRLSCAASGFTFSDYYMSWVRQAPGKGLEWVSGISISYGGNAYYADSVKGRFTVSRDNSKNTLYLQMNSLRAEDTAVYYCGRDRSPYQYRSMDVWGQGTTVTVSS VL: EIVLTQSPGTLSLSPGERATLTCRASQSVGDFLAWYQQKPGQAPRLLIYGASTRAAGIPARFRGSGSGTDFTLTISSLQSEDFAVYYCQQYKNWPPLTFGGGTKVEIK", "result": 64500}

What MFI @ 10 ug/ml value was documented for this binder, 40633p1.2.E1 (scFv, V domains shown, Tested as scFv-Fc (Expi293 supernatant)) VH: EVQLLESGRGLVQPGGSLRLSCAASGFTVSYYGMSWVRQAPGKGLEWVSVIKQDGSEEYYADSVKGRFTISRDNSKNTLYLQMNSLRAEDTAVYYCARHWNDYSNGMNVWGQGTTVTVSS VL: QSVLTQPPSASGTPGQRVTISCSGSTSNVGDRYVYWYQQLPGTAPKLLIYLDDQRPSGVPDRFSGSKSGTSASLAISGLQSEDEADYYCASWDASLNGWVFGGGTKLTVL ?
64700

Thanks! And 40511p1.2.B5 (scFv, V domains shown, Tested as scFv-Fc (Expi293 supernatant)) VH: DVQLVESGGGVVRPGESLRLSCAASGFTFSSYAMSWVRQAPGEGLEWVSSISGSGGSTLYADSVKGRFTISRDSSNNSLYLQMNSLRAEDTAVYYCAKARNNFFDYWGLGTLVTVSS VL: EIVLTQSPGTLTLSPGERATLSCRASRSILTSLAWYQQRPGQTPRLLIYGANSRATGIPDRFSGSGSGTEFTLTISSLQSEDFAVYYCQQYYDWLTITFGGGTKVEIK ?
67900
